# assay-target: GST tagged truncated human mutant G2019S LRRK2 (Homo sapiens (Human), UniProt Q5S007, G2019S)
# Sequence (Q5S007 970-2527 G2019S): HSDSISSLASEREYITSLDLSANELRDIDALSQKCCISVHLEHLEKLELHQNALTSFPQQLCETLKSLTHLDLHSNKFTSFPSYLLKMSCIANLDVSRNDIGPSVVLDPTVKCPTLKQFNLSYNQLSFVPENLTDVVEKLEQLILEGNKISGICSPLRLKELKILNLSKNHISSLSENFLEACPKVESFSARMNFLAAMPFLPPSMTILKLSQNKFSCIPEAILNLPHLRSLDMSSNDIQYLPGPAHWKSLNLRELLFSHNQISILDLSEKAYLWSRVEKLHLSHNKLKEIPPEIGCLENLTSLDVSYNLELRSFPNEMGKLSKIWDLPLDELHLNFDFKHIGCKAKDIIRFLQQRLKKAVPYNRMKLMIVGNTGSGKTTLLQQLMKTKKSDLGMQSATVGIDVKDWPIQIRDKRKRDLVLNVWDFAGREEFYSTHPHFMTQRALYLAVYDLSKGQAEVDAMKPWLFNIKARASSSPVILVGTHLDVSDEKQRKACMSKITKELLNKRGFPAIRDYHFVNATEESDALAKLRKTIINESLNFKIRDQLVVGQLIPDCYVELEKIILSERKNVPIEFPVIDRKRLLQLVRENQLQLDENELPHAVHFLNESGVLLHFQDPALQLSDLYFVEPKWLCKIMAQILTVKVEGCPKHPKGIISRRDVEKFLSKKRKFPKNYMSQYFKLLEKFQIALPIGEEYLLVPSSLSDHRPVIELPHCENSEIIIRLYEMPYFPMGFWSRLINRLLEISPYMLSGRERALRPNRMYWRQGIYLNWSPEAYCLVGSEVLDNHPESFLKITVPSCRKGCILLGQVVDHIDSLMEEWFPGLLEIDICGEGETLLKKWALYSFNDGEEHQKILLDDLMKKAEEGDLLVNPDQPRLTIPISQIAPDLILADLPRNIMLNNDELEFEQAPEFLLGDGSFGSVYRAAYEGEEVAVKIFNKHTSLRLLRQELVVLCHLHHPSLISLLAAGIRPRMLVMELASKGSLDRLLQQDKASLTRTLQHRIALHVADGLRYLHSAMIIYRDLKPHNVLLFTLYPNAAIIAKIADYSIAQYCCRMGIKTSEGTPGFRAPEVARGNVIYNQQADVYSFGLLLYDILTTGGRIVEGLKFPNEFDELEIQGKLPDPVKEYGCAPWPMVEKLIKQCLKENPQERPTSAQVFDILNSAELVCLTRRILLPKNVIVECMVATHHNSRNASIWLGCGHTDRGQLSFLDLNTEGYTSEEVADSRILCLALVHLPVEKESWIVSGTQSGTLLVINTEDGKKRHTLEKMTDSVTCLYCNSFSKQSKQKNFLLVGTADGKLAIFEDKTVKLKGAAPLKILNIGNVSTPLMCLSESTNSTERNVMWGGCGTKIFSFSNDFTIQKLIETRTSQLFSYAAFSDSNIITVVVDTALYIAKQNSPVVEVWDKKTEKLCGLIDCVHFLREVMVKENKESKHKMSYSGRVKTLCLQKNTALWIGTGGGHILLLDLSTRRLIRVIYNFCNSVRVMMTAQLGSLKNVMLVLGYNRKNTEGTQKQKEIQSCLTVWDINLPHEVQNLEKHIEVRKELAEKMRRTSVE
# assay-text: LRRK2 Km ATP LanthaScreen Assay
# Assay type: biochemical
# settings: G2019S LRRK2, 134 μM ATP (Km ATP), mean values
reported-endpoint: LRRK2 pIC50
Keep it simple and answer with nothing but the number.

Recorded LRRK2 pIC50, per entry:
compound: CC(C)(O)Cn1ncc(Nc2ncc3cc(Cl)c(C4(F)CCN(C5COC5)CC4)cc3n2)c1Cl
val: 8.09
--
compound: Cn1ncc(Nc2ncc3cc(Cl)c([C@@H]4CCN([C@@H]5COC[C@@H]5O)C[C@H]4F)cc3n2)c1Cl (single isomer, unassigned)
val: 7.95
--
compound: CC1(O)CCC(c2cc3nc(Nc4cnn(C5CC5)c4)ncc3cc2Cl)CC1 (stereo not shown)
val: 8.59
--
compound: Cn1ncc(Nc2ncc3cc(Cl)c([C@@H]4CCN([C@H]5COC[C@H]5O)C[C@H]4F)cc3n2)c1C1CC1 (single isomer, unassigned)
val: 7.57
--
compound: Cc1c(Nc2ncc3cc(Cl)c([C@H]4CCN(C5COC5)C[C@@H]4F)cc3n2)cnn1C1CC1(F)F (single isomer, unassigned) [Ex-4.176]
val: 8.73

So what's the measured LRRK2 pIC50 for this one? Cc1c(Nc2ncc3cc(Cl)c(C4CCN(C5(C)CCCC5O)CC4)cc3n2)cnn1C1CC1 (single isomer, unassigned) [Ex-1.20] 8.84

So what's the measured LRRK2 pIC50 for this one? Cc1nsc(Nc2ncc3cc(Cl)c([C@@H]4CCN(C5CCOC5)C[C@H]4F)cc3n2)c1Cl (single isomer, unassigned) [Ex-8.20] 8.53

So what's the measured LRRK2 pIC50 for this one? Cc1c(Nc2ncc3cc(Cl)c(C4CCN([C@@]5(C)COC[C@H]5O)CC4)cc3n2)cnn1C1CC1 (single isomer, unassigned) 8.16

---

# assay-target: GST tagged truncated human mutant G2019S LRRK2 (Homo sapiens (Human), UniProt Q5S007, G2019S)
# assay-text: LRRK2 Km ATP LanthaScreen Assay
# Assay type: biochemical
# settings: G2019S LRRK2, 134 μM ATP (Km ATP), mean values
We begin with a simple list: items and their reported LRRK2 pIC50.
Keep it simple and answer with nothing but the number.

molecule: Cc1c(Nc2ncc3cc(Cl)c(C4CCN(C[C@H](O)c5cc(F)ccc5F)CC4)cc3n2)cnn1C1CC1
LRRK2 pIC50: 7.67

molecule: CC1(n2ncc(Nc3ncc4cc(Cl)c(C5CCN(C(F)(F)F)CC5)cc4n3)c2Cl)CC1
LRRK2 pIC50: 7.74

molecule: CC(C)(O)Cn1ncc(Nc2ncc3cc(Cl)c([C@@H]4CCN(C5COC5)C[C@H]4F)cc3n2)c1Cl (single isomer, unassigned)
LRRK2 pIC50: 9.16

molecule: Cc1c(Nc2ncc3cc(Cl)c([C@@H]4CCN(C5COC5)C[C@H]4F)cc3n2)cnn1C1CC1(F)F (single isomer, unassigned) [Ex-4.177]
LRRK2 pIC50: 9.16

molecule: Cc1c(Nc2ncc3cc(Cl)c(C4CCN(C[C@H](O)CN5CCCC5=O)CC4)cc3n2)cnn1C1CC1
LRRK2 pIC50: 9.05

molecule: Cc1c(Nc2ncc3cc(Cl)c(C4CCN([C@@]5(C)COC[C@H]5O)CC4)cc3n2)cnn1C (single isomer, unassigned)
LRRK2 pIC50: 7.84

So what's the measured LRRK2 pIC50 for this one? F[C@@H]1CN(C2COC2)CC[C@H]1c1cc2nc(Nc3cnn(C4CC4(F)F)c3Cl)ncc2cc1Cl (single isomer, unassigned) [Ex-8.28] 9.04
